Source of measurements: PubChem BioAssay AID493139

- system: Alkaline phosphatase, germ cell type (Homo sapiens) (UniProt P10696)
- Sequence (P10696 whole entry, looked up): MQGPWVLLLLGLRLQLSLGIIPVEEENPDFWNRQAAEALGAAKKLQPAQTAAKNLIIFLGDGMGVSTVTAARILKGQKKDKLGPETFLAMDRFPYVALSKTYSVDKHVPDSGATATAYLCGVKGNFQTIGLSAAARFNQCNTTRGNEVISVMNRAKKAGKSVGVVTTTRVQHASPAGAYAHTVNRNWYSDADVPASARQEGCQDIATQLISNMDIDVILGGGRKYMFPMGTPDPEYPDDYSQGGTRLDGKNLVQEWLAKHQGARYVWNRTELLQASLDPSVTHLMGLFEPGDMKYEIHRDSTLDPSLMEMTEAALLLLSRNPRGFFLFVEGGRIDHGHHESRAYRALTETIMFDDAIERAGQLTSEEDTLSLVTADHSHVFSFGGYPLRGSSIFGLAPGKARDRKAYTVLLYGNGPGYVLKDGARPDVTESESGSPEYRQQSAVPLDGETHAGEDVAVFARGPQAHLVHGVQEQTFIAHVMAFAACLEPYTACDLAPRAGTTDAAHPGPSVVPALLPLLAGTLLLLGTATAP
- experiment.summary: effect of analogs on PLAP-like activity, SAR follow-up, selectivity assay for mouse IAP activator project, biochemical, human placental-like ALPPL2 isozyme (AID 493139)
- conditions.used: purified human placental-like alkaline phosphatase, enzymatic activity
The source made the active and inactive calls. No rule for the calls is given here.
Your reply should match one of these outcome classes. active, inactive

{"compound": "O=C(N/N=C/c1ccccc1F)c1cc(O)c(O)c(O)c1", "discrete.label": "inactive"}
{"compound": "CC(C)c1ccc(NC(=O)CCNS(=O)(=O)c2ccc3[nH]c(=O)oc3c2)cc1", "discrete.label": "inactive"}
{"compound": "Cc1ccc(NC(=O)CCNS(=O)(=O)c2ccc3[nH]c(=O)oc3c2)cc1N(C)C", "discrete.label": "inactive"}
{"compound": "CCOC(=O)N1CCN(S(=O)(=O)c2ccc3[nH]c(=O)oc3c2)CC1", "discrete.label": "inactive"}
{"compound": "CCOC(=O)NC(=O)CSc1sc2c(O)cc(=O)[nH]c2c1C#N", "discrete.label": "inactive"}

Called result for O=C(N/N=C/C1CC2CCC1C2)c1cc(O)c(O)c(O)c1 (stereo not drawn) inactive

Next record, please: `COc1ccccc1NC(=O)CSc1sc2c(O)cc(=O)[nH]c2c1C#N` inactive

Also NS(=O)(=O)c1ccc(-c2ccc(/C=C3\SC(=S)N(C4CCS(=O)(=O)C4)C3=O)o2)cc1 (stereo not drawn) ? inactive

And `O=C(CCNS(=O)(=O)c1ccc2[nH]c(=O)oc2c1)Nc1cccc(-c2ccno2)c1` ? inactive

Field entry: O=C(NCCc1ccc(Cl)cc1)C1CCCN(S(=O)(=O)c2ccc3[nH]c(=O)oc3c2)C1 (stereo not drawn) inactive
